Test system: OVCAR-5 ovarian
Test: NCI-60 one-dose screen, 48 h (100 = growth as untreated, 0 = no growth, -100 = all killed)
Conditions: 10 µM unless noted
This is part of a sample that, as a whole, favours compounds with a hit. Of some 83,000 tested, about 20% had one in any assay.
# reported growth; entries follow
Provide the reading as a plain figure in %.

| compound | growth [%] |
| --- | --- |
| NC(=N\N=C/c1cccc([N+](=O)[O-])c1)/C(N)=N\N=C/c1cccc([N+](=O)[O-])c1 | 101 |
| O=C(O)c1ccc2c(c1)CCC2 | 105 |
| O=C1/C(=C/c2ccccc2)CCc2nc3ccccc3c(/C=C/c3ccc(Cl)cc3)c21 | 108 |
| CC(CN1CCCCC1)C(=O)c1ccccc1 (centres undefined) | 101 |
| C=CCNc1nc(NN2C(=O)c3cccc4cccc(c34)C2=O)nc(-n2cnc3ccccc32)n1 | 77.2 |
| C(=N\Nc1ncc(-c2cc3cc4c(cc3o2)OCO4)s1)/c1ccco1 | 58 |
| O=[N+]([O-])c1ccc(OCCO)cc1 | 97.1 |
| N#Cc1c(N)nc2c(C#N)c(NC(=O)c3ccccc3)nn2c1-c1ccccc1 | 105 |

Below: the item to evaluate.
Task: Tell me the measured growth of "Cc1cc(=O)oc2c1ccc1oc(C#N)c(C)c12" , please.
Output: 92.4
